# System: MCF7
# assay-text: Selectivity index, ratio of IC50 for human fibroblasts to IC50 for human MCF7 cells
observable: Ratio IC50

> print(dat)
                            molecule.smiles  recorded.result
1  O=C(O)c1ccc(O)c(CN[C@@H]2CCCC[C@H]2NCc2cc(C(=O)O)ccc2O)c1             12.8
2  Oc1ccc(CN[C@@H]2CCCC[C@H]2NCc2ccc(O)c(O)c2)cc1O             12.8
3  Oc1ccc(CN[C@@H]2CCCC[C@H]2NCc2ccc(O)cc2O)c(O)c1             13.7
4  Oc1cccc(CN[C@@H]2CCCC[C@H]2NCc2cccc(O)c2O)c1O             22.1
5  Oc1ccc(O)c(CN[C@@H]2CCCC[C@H]2NCc2cc(O)ccc2O)c1             14.4
6  Cc1ccc(O)c(CN[C@@H]2CCCC[C@H]2NCc2cc(C)ccc2O)c1             10.3
